The measured values listed here are drawn from PubChem BioAssay AID1159577.

# Assay Text: HepG2 cell cytotoxicity, dose response, cytotoxicity control, cherry-picked samples (AID 1159577)
# Run Conditions: HepG2 cytotoxicity counterscreen, plate reader; series mostly up to 19.5 µM
Out of some 1,300 compounds screened, about 240 (18%) were called active. Another 8% or so got no clear call; they are omitted. Only a sample is shown. Entries with a potency or affinity are not part of this list.
Metric Name: outcome

Illustrative cases are given below, each with its answer.
Compound	Endpoint Value
C[C@@H]1CN([C@@H](C)CO)C(=O)c2ccccc2-c2ccccc2CO[C@H]1CN(C)C(=O)Nc1cccc(Cl)c1Cl	inactive
CC(C)(C)[S@](=O)N1Cc2cc(C(=O)NCCN3CCCC3)nc(-c3cccc(-c4ccc(C#N)cc4)c3)c2[C@@H]1CCO	inactive
COCC(=O)Nc1ccc2c(c1)OC[C@@H](C)N(C(=O)NC(C)C)C[C@@H](C)[C@@H](OC)CN(C)C2=O	inactive
COc1ccc2c3c([nH]c2c1)[C@H](CO)N(Cc1ccccc1Cl)CC31CN(C(=O)C2CC2)C1	inactive

Look up outcome of COc1ccccc1CN1C[C@@H]2N[C@H](C1)C2c1ccc(-c2ccncc2)cc1 (stereo partly drawn) and report it.
inactive

For the compound CCCC#Cc1ccc2c(c1)O[C@H](CN(C)C(=O)c1ccccc1F)[C@@H](C)CN([C@H](C)CO)S2(=O)=O , give its reported outcome.
inactive

Return the recorded outcome value; entry: COc1ccc(C#Cc2ccc3c(c2)O[C@@H](CN(C)C(=O)Nc2cccc(OC)c2)[C@@H](C)CN([C@H](C)CO)S3(=O)=O)cc1
inactive

Look up and state reported outcome for Cc1ccccc1S(=O)(=O)N1C[C@@H]2N[C@H](C1)C2c1ccc(-c2ccc(C#N)cc2)cc1 (stereo partly drawn)
inactive
